// provenance: ChEMBL document CHEMBL4251565

assay: Cytotoxicity against African green monkey Vero E6 cells by Cell Titer-blue method; format: cell-based, Vero C1008; settings: chlorocebus sabaeus
assay.metric: CC50

{"columns": ["item.smiles", "reported"],
 "data": [
  ["O=C(OC1=CS(=O)(=O)Nc2ccc(Oc3ccccc3Br)cc21)c1ccc(F)c(F)c1", "80 µM"]
]}

* * *

molecular target: Nonstructural protein 5 (Dengue virus); assay: Inhibition of DENV3 NS5 RdRp using ss-RNA PolyC as template and GTP as substrate assessed as decrease in dsRNA levels after 1 hr by PicoGreen-based fluorescence assay; parameters: species or system dengue virus type 3
Sequence (V5TFZ2 whole entry): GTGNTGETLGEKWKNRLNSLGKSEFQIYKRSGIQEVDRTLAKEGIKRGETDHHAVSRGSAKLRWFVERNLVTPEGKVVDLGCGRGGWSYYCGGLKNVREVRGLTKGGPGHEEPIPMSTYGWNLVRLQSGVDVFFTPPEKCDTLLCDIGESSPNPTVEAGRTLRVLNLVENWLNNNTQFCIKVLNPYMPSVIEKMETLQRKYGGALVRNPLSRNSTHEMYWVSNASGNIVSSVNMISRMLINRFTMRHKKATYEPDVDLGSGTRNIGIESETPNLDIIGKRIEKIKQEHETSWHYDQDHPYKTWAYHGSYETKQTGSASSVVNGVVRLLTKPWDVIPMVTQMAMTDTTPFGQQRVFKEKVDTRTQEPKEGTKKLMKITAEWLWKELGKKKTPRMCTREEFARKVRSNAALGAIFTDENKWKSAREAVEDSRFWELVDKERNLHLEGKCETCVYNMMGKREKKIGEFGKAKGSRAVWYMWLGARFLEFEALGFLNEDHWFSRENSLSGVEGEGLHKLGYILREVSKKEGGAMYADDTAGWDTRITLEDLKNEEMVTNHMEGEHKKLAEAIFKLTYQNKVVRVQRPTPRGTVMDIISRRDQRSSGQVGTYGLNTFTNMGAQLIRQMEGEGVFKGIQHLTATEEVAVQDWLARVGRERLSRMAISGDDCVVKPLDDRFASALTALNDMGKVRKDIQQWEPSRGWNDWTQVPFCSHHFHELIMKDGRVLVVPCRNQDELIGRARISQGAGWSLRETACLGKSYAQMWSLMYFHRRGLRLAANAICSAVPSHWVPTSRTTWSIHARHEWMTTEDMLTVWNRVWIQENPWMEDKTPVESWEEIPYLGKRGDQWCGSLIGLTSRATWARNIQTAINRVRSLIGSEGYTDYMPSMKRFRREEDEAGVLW
# maps each entry to its IC50

{"columns": ["item.smiles", "unit.spec", "bound.operator", "IC50"],
 "data": [
  ["O=C(OC1=CS(=O)(=O)Nc2ccc(Oc3cccc(Br)c3)cc21)c1ccccc1", "µM", "=", 7],
  ["O=C(O)c1cc(Oc2cccc(Br)c2)ccc1NS(=O)(=O)c1ccc([N+](=O)[O-])cc1", "µM", "=", 1.7],
  ["CCOC1=CS(=O)(=O)Nc2ccc(Oc3ccccc3Br)cc21", "µM", "=", 41.5],
  ["O=C(O)c1cc(Oc2cccc(Br)c2)ccc1NS(=O)(=O)c1ccccc1", "µM", "=", 4.5],
  ["CCc1cccc(Oc2ccc3c(c2)C(OC(=O)c2ccccc2)=CS(=O)(=O)N3)c1", "µM", "=", 6.9],
  ["CN1c2c(C(=O)Nc3ccc(NS(C)(=O)=O)cc3)nn(-c3ccc(Cl)cc3)c2-c2ccccc2S1(=O)=O", "µM", "=", 13.6],
  ["COc1ccc(C(=O)OC2=CS(=O)(=O)Nc3ccc(Oc4ccccc4Br)cc32)cc1[N+](=O)[O-]", "µM", "=", 6.3],
  ["Cc1ccc(-n2nc(C(=O)Nc3ccc(NS(C)(=O)=O)cc3)c3c2-c2ccccc2S(=O)(=O)N3C)cc1", "µM", "=", 14.1],
  ["COC1=CS(=O)(=O)N(C(=O)c2ccccc2)c2ccc(Oc3ccccc3Br)cc21", "µM", "=", 46.2],
  ["COc1cccc(Oc2ccc3c(c2)C(OC(=O)c2ccccc2)=CS(=O)(=O)N3)c1", "µM", "=", 20.3],
  ["O=C(OC1=CS(=O)(=O)Nc2ccc(Oc3ccccc3Br)cc21)c1ccc(F)c(F)c1", "µM", "=", 0.6],
  ["O=C(OC1=CS(=O)(=O)Nc2ccc(Oc3ccc(Br)cc3)cc21)c1ccccc1", "µM", "=", 4.7],
  ["O=C(OC1=CS(=O)(=O)Nc2ccc(Oc3cccc(Br)c3)cc21)c1ccc(F)c(F)c1", "µM", "=", 0.9],
  ["O=C(OC1=CS(=O)(=O)Nc2ccc(Oc3cccc(Br)c3)cc21)c1cccc([N+](=O)[O-])c1", "µM", "=", 8.4],
  ["CN1c2c(C(=O)Nc3ccc(NS(C)(=O)=O)cc3)nn(-c3cccc(F)c3)c2-c2ccccc2S1(=O)=O", "µM", "=", 17.3],
  ["O=C1CS(=O)(=O)N(C(=O)c2ccccc2)c2ccc(Oc3ccccc3Br)cc21", "µM", "=", 11.4],
  ["O=C(OC1=CS(=O)(=O)Nc2ccc(Oc3cccc(F)c3)cc21)c1ccccc1", "µM", "=", 7],
  ["CN1c2ccc(Oc3cccc(Br)c3)cc2C(OC(=O)c2ccccc2)=CS1(=O)=O", "µM", "=", 2.6],
  ["O=C1CCN(C(=O)c2ccccc2)c2ccc(Oc3ccccc3Br)cc21", "µM", ">", 50]
]}
